assay: AUC in Beagle dog at 1 mg/kg, po; format: ADME, organism-based, Canis lupus familiaris; design: dose 1 mg/kg, route oral; details: plasma
reportedProperty: AUC (ng·h/mL)

smilesrepresentation=Cc1ccc(F)cc1NC(=O)Nc1ccc(CC(=O)N2C[C@@H](F)C[C@H]2COc2ccc(C(=O)O)cc2)cc1Cl reportedproperty=AUC measurementunit=ng·h/mL measuredvalue=2390

###

test: Half life in Beagle dog at 1 mg/kg, po; type: ADME, organism-based, Canis lupus familiaris; design: dose 1 mg/kg, route oral; conditions: in vivo
reportedProperty: half-life (h)

smilesrepresentation=Cc1ccc(F)cc1NC(=O)Nc1ccc(CC(=O)N2C[C@@H](F)C[C@H]2COc2ccc(C(=O)O)cc2)cc1Cl measuredvalue=5

All figures here come from ChEMBL document CHEMBL1151689.
